System: Plasmodium falciparum
Assay: In vitro growth inhibition of Plasmodium falciparum FcB1R
Assay type: functional, organism-based
pIC50: −log10 of the molar value.
pIC50 vs 7: at or above is yes, below is no.

Consider the following illustrative entries.
1) O=C(CCC(=O)N1CCN(c2ccnc3cc(Cl)ccc23)CCN(c2ccnc3cc(Cl)ccc23)CC1)N1CCN(c2ccnc3cc(Cl)ccc23)CCN(c2ccnc3cc(Cl)ccc23)CC1 :: yes
2) O=C(O)CCC(=O)N1CCN(c2ccnc3cc(Cl)ccc23)CCN(c2ccnc3cc(Cl)ccc23)CC1 :: no

With those in mind, consider the next compound.
IN: Textbook exercise: given the entry CC(NC(=O)OC(C)(C)C)C(=O)N1CCN(c2ccnc3cc(Cl)ccc23)CCN(c2ccnc3cc(Cl)ccc23)CC1 (stereo unspecified) , state whether its pIC50 is greater than or equal to 7.
OUT: no

---

Please go through the items and note down their IC50.
System: Plasmodium falciparum
Experiment: In vitro growth inhibition of Plasmodium falciparum FcB1R
Assay type: functional, organism-based
One number for each entry, in nM.

1. O=C(CCCCCCCC(=O)N1CCN(c2ccnc3cc(Cl)ccc23)CCN(c2ccnc3cc(Cl)ccc23)CC1)N1CCN(c2ccnc3cc(Cl)ccc23)CCN(c2ccnc3cc(Cl)ccc23)CC1 :: 22.6

Kindly consider the entry below.
IN: IC50 for O=C(O)CCCC(=O)N1CCN(c2ccnc3cc(Cl)ccc23)CCN(c2ccnc3cc(Cl)ccc23)CC1 ?
OUT: 940

---

Tested on: Plasmodium falciparum
Experiment: In vitro growth inhibition of Plasmodium falciparum FcB1R
Format: functional, organism-based
Record form. Attribute: pIC50. Fill in for each entry.
Numbers only, as −log10 of the molar value.

1. CC(N)C(=O)N1CCN(c2ccnc3cc(Cl)ccc23)CCN(c2ccnc3cc(Cl)ccc23)CC1 (centres undefined) :: 6.64

IN: Which pIC50 value is on record for O=C(CCCC(=O)N1CCN(c2ccnc3cc(Cl)ccc23)CCN(c2ccnc3cc(Cl)ccc23)CC1)N1CCN(c2ccnc3cc(Cl)ccc23)CCN(c2ccnc3cc(Cl)ccc23)CC1 ?
OUT: 7.74

---

Tested on: MRC5
Test: Cytotoxicity against MRC-5 cells at concentration 8 uM
Type: functional
Settings: Homo sapiens
RECORDED_ENDPOINT: cytotoxicity at 8 µM (%)
Numbers only, in %.

1) O=C(CCCCCCCCCCCN1CCCCC1)N1CCN(c2ccnc3cc(Cl)ccc23)CCN(c2ccnc3cc(Cl)ccc23)CC1 :: 92
2) Clc1ccc2c(NCCCCNCCCNc3ccnc4cc(Cl)ccc34)ccnc2c1 :: 100

Could you now consider this next molecule?
IN: Tell me the measured cytotoxicity at 8 µM of CC(C)(C)OC(=O)NCCC(=O)N1CCN(c2ccnc3cc(Cl)ccc23)CCN(c2ccnc3cc(Cl)ccc23)CC1 , please.
OUT: 0

---

Test system: Plasmodium falciparum
Assay: In vitro growth inhibition of Plasmodium falciparum FcB1R
Format: functional, organism-based
RECORDED_ENDPOINT: IC50
Please state the value followed by its unit.

1. O=C(CCCCCCCCCCC(=O)N1CCN(c2ccnc3cc(Cl)ccc23)CCN(c2ccnc3cc(Cl)ccc23)CC1)N1CCN(c2ccnc3cc(Cl)ccc23)CCN(c2ccnc3cc(Cl)ccc23)CC1 :: 79.1 nM
2. O=C(CCCCN1CCCCC1)N1CCN(c2ccnc3cc(Cl)ccc23)CCN(c2ccnc3cc(Cl)ccc23)CC1 :: 132 nM

IN: Fill in the blank: the reported IC50 of O=C(CNCC(=O)N1CCN(c2ccnc3cc(Cl)ccc23)CCN(c2ccnc3cc(Cl)ccc23)CC1)N1CCN(c2ccnc3cc(Cl)ccc23)CCN(c2ccnc3cc(Cl)ccc23)CC1 is ____.
OUT: 103 nM
